Compiled IC50 measurements on Ephrin type-B receptor 4 (Homo sapiens) taken from the literature.

- Molecule: "COc1cc(Nc2ncnc(N3CCC(O)CC3)n2)cc(OC)c1OC"
  IC50: "> 12.5 µM"
- Molecule: "CN1CCN(c2ccc(-c3cc(-c4ccc(NC(=O)C(=O)NCCc5ccccc5)cc4)[nH]n3)cc2)CC1"
  IC50: "0.5 to 5 µM"
- Molecule: "COCCOc1ccc(Nc2ncnc(Nc3cc(-c4ccco4)n[nH]3)n2)cc1OCCOC"
  IC50: "> 9.63 µM"
- Molecule: "COc1cc2c(Nc3ccc(Cl)c(Cl)c3)ncnc2cc1OCC1CCCCC1"
  IC50: "< 0.05 µM"
- Molecule: "COc1cc2c(Nc3ccc(Cl)c(Cl)c3)ncnc2cc1OC[C@H]1O[C@H](OC)[C@H](O)[C@@H](O)[C@@H]1O (stereo in doubt)"
  IC50: "< 0.05 µM"
- Molecule: "COc1cc(Nc2ncnc(Nc3ccc(NC(=O)OC(C)(C)C)cc3)n2)cc(OC)c1OC"
  IC50: "> 9.6 µM"
- Molecule: "COc1cc2c(Nc3cc(Cl)c(Cl)c(Cl)c3)ncnc2cc1O[C@@H]1CO[C@@H]2[C@H]1OC[C@H]2F"
  IC50: "< 0.05 µM"
- Molecule: "CCOc1ccc(Nc2ncnc(-n3c(N)nc4ccccc43)n2)cc1OCC"
  IC50: "> 11.5 µM"

With those in mind, consider the next molecule.
Asked: I'd like to know its IC50. The molecule in question is `COc1cccc(C(=O)c2c[nH]c3ncc(-c4cccc(NC(C)=O)c4)cc23)c1F`
Given back: ≤ 10 µM

---

IC50 values for Ephrin type-B receptor 4 (Homo sapiens), compiled from several publications.

Asked: Could you share which IC50 value was measured for `COCCOc1cc(Nc2ncnc(Nc3ccc(C)c(O)c3)n2)ccc1OC` ?
Given back: 8.81 to 11.3 µM

Asked: # lookup: IC50 of `CN1CCN(c2ccc(-c3cc(-c4ccc(NC(=O)Nc5ccc(Cl)c(C(F)(F)F)c5)cc4)[nH]n3)cc2)CC1`
Given back: > 5 µM

Asked: Recorded IC50 for `COc1cc(Nc2ncnc(-c3cc4ccccc4s3)n2)cc(OC)c1OC` , please?
Given back: > 11.4 µM

Asked: For `CCN1CCC(c2nc(COc3cc4ncnc(Nc5ccc(Cl)c(Cl)c5)c4cc3OC)no2)CC1` , what is its reported IC50?
Given back: < 0.05 µM

---

Compiled record: IC50 values for Ephrin type-B receptor 4 (Homo sapiens, UniProt P54760) across several sources.

- Compound: "COc1cc2c(Nc3ccc(Cl)c(Cl)c3)ncnc2cc1OCc1nc(-c2ccc(C(C)(C)C)cc2)no1"
  IC50: "< 50 nM"
- Compound: "COc1cc(Nc2ncnc(Nc3ccc(C(N)=O)cc3)n2)cc(OC)c1OC"
  IC50: "> 11400 nM"
- Compound: "COc1ccc(CNc2ncnc(Nc3cc(OC)c(OC)c(OC)c3)n2)cc1"
  IC50: "> 11300 nM"
- Compound: "COc1cc(Nc2ncnc(-n3ccc4cc(Cl)ccc43)n2)cc(OC)c1OC"
  IC50: "> 10900 nM"
- Compound: "COc1cc(Nc2ncnc(-c3ccnc(NCCCO)c3)n2)cc(OC)c1OC"
  IC50: "> 10900 nM"
- Compound: "COc1cc(Nc2ncnc(Nc3cc(C)c(O)cc3C)n2)cc(OC)c1OC"
  IC50: "1010 to 6040 nM"
- Compound: "CCN1CCCOC(COc2cc3ncnc(Nc4ccc(Cl)c(Cl)c4)c3cc2OC)C1 (stereo not drawn)"
  IC50: "< 50 nM"
- Compound: "COc1cc2c(Nc3ccc(Cl)c(Cl)c3)ncnc2cc1OCc1noc(C2CCCCN2C)n1 (stereo not drawn)"
  IC50: "< 50 nM"
- Compound: "COc1cc2c(Nc3ccc(Cl)c(Cl)c3)ncnc2cc1OCc1csc(N2CCNCC2)n1"
  IC50: "50 to 1000 nM"
- Compound: "CN1CCN(c2ccc3[nH]c(-c4cc(-c5ccc(NC(=O)Nc6ccccc6F)cc5)[nH]n4)nc3c2)CC1"
  IC50: "> 5000 nM"

Asked: What measured IC50 is associated with `COc1cc(Nc2ncnc(N3CCCCC3)n2)cc(OC)c1OC` on Ephrin type-B receptor 4 (Homo sapiens, UniProt P54760)?
Given back: > 13000 nM

Asked: Lab note: need IC50 for `Cc1cccc(Nc2ncnc(Nc3ccc(O)cc3)n2)c1` on Ephrin type-B receptor 4 (Homo sapiens, UniProt P54760), anyone have it?
Given back: 1360 to 8180 nM

Asked: Which measured IC50 belongs to COc1cc2c(Nc3ccc(Br)c(Cl)c3)ncnc2cc1O[C@H]1CO[C@@H]2C3OC(C)(C)O[C@H]3O[C@H]12 (stereo partly drawn) , tested on Ephrin type-B receptor 4 (Homo sapiens, UniProt P54760)?
Given back: < 50 nM

Asked: # returns recorded IC50 (system: Ephrin type-B receptor 4 (Homo sapiens, UniProt P54760)) for `COc1cc(/C=C/c2cc(/C=C/c3ccccc3)[nH]n2)ccc1O`
Given back: 500 to 5000 nM

Asked: Can you look up IC50 on Ephrin type-B receptor 4 (Homo sapiens, UniProt P54760) for `Cc1cccc(C)c1Nc1nc(CCCN(C)C)nc2c1cnn2-c1ccccc1` ?
Given back: 400 nM

---

Record: compiled IC50 on Ephrin type-B receptor 4 (Homo sapiens, UniProt P54760) from multiple reports.

Examples from the recorded data:
- Molecule: "CN1CCN(c2ccc3[nH]c(-c4cc(-c5ccc(NC(=O)Nc6cccc(Cl)c6)cc5)[nH]n4)nc3c2)CC1"
  Target: "Ephrin type-B receptor 4 (Homo sapiens, UniProt P54760)"
  IC50: "> 5 µM"
- Molecule: "COc1cc(Nc2ncnc(Nc3cccc4ccccc34)n2)cc(OC)c1OC"
  Target: "Ephrin type-B receptor 4 (Homo sapiens, UniProt P54760)"
  IC50: "> 11.2 µM"
- Molecule: "COC(=O)c1cccc(Nc2nc3ccccc3n2-c2ncnc(Nc3cc(OC)c(OC)c(OC)c3)n2)c1"
  Target: "Ephrin type-B receptor 4 (Homo sapiens, UniProt P54760)"
  IC50: "> 8.53 µM"
- Molecule: "COc1cc(Nc2ncnc(N3c4ccc(F)cc4CCC3C)n2)cc(OC)c1OC (stereo not shown)"
  Target: "Ephrin type-B receptor 4 (Homo sapiens, UniProt P54760)"
  IC50: "0.94 to 5.64 µM"

Asked: Identify the measured IC50 of `COc1cc(Nc2ncnc(-n3cc(C)c4ccccc43)n2)cc(OC)c1OC` for Ephrin type-B receptor 4 (Homo sapiens, UniProt P54760).
Given back: > 11.5 µM

Asked: Item: `COc1cc(Nc2ncnc(Nc3ccc(C)c(O)c3)n2)cc(OC)c1OC` Test system: Ephrin type-B receptor 4 (Homo sapiens, UniProt P54760) Read-out: IC50 Value: ?
Given back: 1.04 to 6.26 µM

Asked: Given the entry COc1cc2c(Nc3ccc(Cl)c(Cl)c3)ncnc2cc1OCc1noc(C2CCCCN2C(=O)OC(C)(C)C)n1 (stereo not shown) , what IC50 was observed with Ephrin type-B receptor 4 (Homo sapiens, UniProt P54760)?
Given back: < 0.05 µM

Asked: Lab note: need IC50 with Ephrin type-B receptor 4 (Homo sapiens, UniProt P54760) for entry `CCOc1ccc(Nc2ncnc(Nc3ccc(OCc4ccccc4)cc3)n2)cc1OCC` , please look it up.
Given back: 5.25 to 7.65 µM

Asked: // fetch Ephrin type-B receptor 4 (Homo sapiens, UniProt P54760) IC50 for `CCN1CCN(c2ccc3nc(-c4cc(-c5ccc(NC(=O)Nc6ccc(F)cc6F)cc5)[nH]n4)[nH]c3c2)CC1`
Given back: > 5 µM

---

Listed below are compounds with pIC50 for Ephrin type-B receptor 4 (Homo sapiens), each taken from published literature.
pIC50: −log10 of the molar value.

Example entries and their recorded answers appear below.
- Compound: "COc1cc(Nc2ncnc(Nc3ccc(O)cc3C)n2)cc(OC)c1OC"
  pIC50: "< 4.93"
- Compound: "COc1cc2c(Nc3ccc(Cl)c(Cl)c3)ncnc2cc1OCCN1CCCC1"
  pIC50: "6.00 to 7.30"
- Compound: "COc1cc(Nc2ncnc(Nc3cc(-c4ccccc4)nn3C)n2)cc(OC)c1OC"
  pIC50: "5.09 to 5.26"
- Compound: "COc1ccc(Nc2ncnc(Nc3ccc4[nH]ccc4c3)n2)cc1OC"
  pIC50: "4.91 to 5.02"

Asked: Recorded pIC50 for CCN1CCCCC1c1nc(COc2cc3ncnc(Nc4ccc(Cl)c(Cl)c4)c3cc2OC)cs1 (centres unmarked) with Ephrin type-B receptor 4 (Homo sapiens), please?
Given back: 4.70 to 6.00

Asked: Query the reported pIC50 for Ephrin type-B receptor 4 (Homo sapiens); item: `COc1cc2c(Nc3ccc(Cl)c(Cl)c3)ncnc2cc1OCc1c(-c2ccccc2)nn(C)c1Cl`
Given back: > 7.30

Asked: // fetch Ephrin type-B receptor 4 (Homo sapiens) pIC50 for `COc1cc(Nc2ncnc(Nc3cccc(OC(F)(F)F)c3)n2)cc(OC)c1OC`
Given back: < 4.99

Asked: GET /values?readout=pIC50&system=Ephrin type-B receptor 4 (Homo sapiens)&item= `COc1ccc(-n2ncc3c(Nc4cc(F)ccc4C)ncnc32)cc1`
Given back: 6.30

Asked: Hello, I am looking for reported pIC50 with Ephrin type-B receptor 4 (Homo sapiens) for `COc1cc2c(Nc3ccc(Cl)c(Cl)c3)ncnc2cc1OCc1nc(CN2CCOCC2)cs1` . Could you help?
Given back: > 7.30

Asked: Query the reported pIC50 for Ephrin type-B receptor 4 (Homo sapiens); item: `COc1cc(Nc2ncnc(Nc3ccc4[nH]ccc4c3)n2)cc(OC)c1OC`
Given back: > 5.99

Asked: Query the reported pIC50 for Ephrin type-B receptor 4 (Homo sapiens); item: `O=C(Nc1ccc(-c2cc(-c3nc4ccccc4[nH]3)n[nH]2)cc1)Nc1cc(C(F)(F)F)ccc1F`
Given back: < 5.30
